Below, each entry is listed alongside its reported Plant response rating (0 to 100 scale).
Tested on: barnyardgrass (Echinochloa crus-galli)
Assay: Test A pre-/postemergence greenhouse test
Format: in vivo
Details: Postemergence, 125 g ai/ha
Give the figure by itself; no unit, no explanation.

Below are worked cases with known answers.
## Input // Plant response rating (0 to 100 scale) lookup, key: Cc1cc(Cl)c2ccccc2c1-c1c(O)c(Cl)nn(C)c1=O [Cpd. No. 65]
## Output 100

## Input What value of Plant response rating (0 to 100 scale) has been recorded for this entry: Cc1ccc2ccc(Cl)cc2c1-c1c(O)c(Cl)nn(C)c1=O [Cpd. No. 22]
## Output 100

## Input Entry Cc1ccc2ccc(C)c(-c3c(O)c(Cl)nn(C)c3=O)c2c1 [Cpd. No. 20] has what Plant response rating (0 to 100 scale)?
## Output 100

Could you now look at the following compound, please?
## Input Please look up its Plant response rating (0 to 100 scale): Cc1ccc2ccc(F)cc2c1-c1c(O)c(Cl)nn(C)c1=O [Cpd. No. 21]
## Output 90
